Source: ChEMBL document CHEMBL5338795

Documented MIC80 across a set of compounds
# Test system: Candida albicans
# METHOD NOTES: Antifungal activity against Candida albicans SC5314 assessed as reduction in fungal growth incubated for 24 hrs by CLSI based microdilution analysis
# Assay type: functional
The reply should contain only the number, in µg/mL.

Here is how some compounds turned out for MIC80.
OC(CN1CCN(CCCCCCCCCn2ccc3cc(Br)ccc32)CC1)(Cn1cncn1)c1ccc(F)cc1F (stereo unspecified) :: 0.25
O=C(c1cc2ccccc2oc1=O)N1CCN(CC(O)(Cn2cncn2)c2ccc(F)cc2F)CC1 (stereo unspecified) :: 0.062
OC(CN1CCN(CCn2ccc3ccccc32)CC1)(Cn1cncn1)c1ccc(F)cc1F (stereo unspecified) :: 0.031
O=S(=O)(c1ccc(Cl)cc1)N1CCN(CC(O)(Cn2cncn2)c2ccc(F)cc2F)CC1 (stereo unspecified) :: 0.125
OC(CN1CCN(CCCCCCn2ccc3cc(Br)ccc32)CC1)(Cn1cncn1)c1ccc(F)cc1F (stereo unspecified) :: 0.125
COc1ccc(S(=O)(=O)N2CCN(CC(O)(Cn3cncn3)c3ccc(F)cc3F)CC2)cc1 (stereo unspecified) :: 0.25
COc1ccc2c(ccn2CCCCCN2CCN(CC(O)(Cn3cncn3)c3ccc(F)cc3F)CC2)c1 (stereo unspecified) :: 0.125
OC(CN1CCN(CCCCCCCCCn2ccc3cc(Cl)ccc32)CC1)(Cn1cncn1)c1ccc(F)cc1F (stereo unspecified) :: 0.25

Challenge: Which value of MIC80 has been reported for OC(CN1CCN(CCn2c3ccccc3c3cc(Br)ccc32)CC1)(Cn1cncn1)c1ccc(F)cc1F (stereo unspecified) in the records?
Response given: 0.25

Challenge: Which value of MIC80 has been reported for `C[C@@H](c1ncncc1F)[C@](O)(Cn1cncn1)c1ccc(F)cc1F` in the records?
Response given: 0.062

Challenge: Which value of MIC80 has been reported for OC(CN1CCN(CCn2ccc3cccnc32)CC1)(Cn1cncn1)c1ccc(F)cc1F (stereo unspecified) in the records?
Response given: 0.062

Challenge: Which value of MIC80 has been reported for OC(CN1CCN(CCn2ccc3cc(Br)cnc32)CC1)(Cn1cncn1)c1ccc(F)cc1F (stereo unspecified) in the records?
Response given: 0.062

Challenge: Which value of MIC80 has been reported for Cc1ccc2c(c1)C(=O)C(=O)N2CCN1CCN(CC(O)(Cn2cncn2)c2ccc(F)cc2F)CC1 (stereo unspecified) in the records?
Response given: 0.125

Challenge: Which value of MIC80 has been reported for COc1ccc2c(ccn2CCCN2CCN(CC(O)(Cn3cncn3)c3ccc(F)cc3F)CC2)c1 (stereo unspecified) in the records?
Response given: 0.062

Challenge: Which value of MIC80 has been reported for O=C(c1cc2cc(F)ccc2oc1=O)N1CCN(CC(O)(Cn2cncn2)c2ccc(F)cc2F)CC1 (stereo unspecified) in the records?
Response given: 0.25

Challenge: Which value of MIC80 has been reported for OC(CN1CCN(CCn2c3ccccc3c3cc(Cl)ccc32)CC1)(Cn1cncn1)c1ccc(F)cc1F (stereo unspecified) in the records?
Response given: 0.25

Challenge: Which value of MIC80 has been reported for OC(CN1CCN(CCn2c3ccccc3c3ccccc32)CC1)(Cn1cncn1)c1ccc(F)cc1F (stereo unspecified) in the records?
Response given: 0.125

Challenge: Which value of MIC80 has been reported for COc1ccc2c(cnn2CCN2CCN(CC(O)(Cn3cncn3)c3ccc(F)cc3F)CC2)c1 (stereo unspecified) in the records?
Response given: 0.062

Challenge: Which value of MIC80 has been reported for O=C(c1ccc2ncccc2c1)N1CCN(CC(O)(Cn2cncn2)c2ccc(F)cc2F)CC1 (stereo unspecified) in the records?
Response given: 0.125

Challenge: Which value of MIC80 has been reported for O=C(c1ccc2c(c1)OCO2)N1CCN(CC(O)(Cn2cncn2)c2ccc(F)cc2F)CC1 (stereo unspecified) in the records?
Response given: 0.25

Challenge: Which value of MIC80 has been reported for O=c1ccc2ccc(OCCN3CCN(CC(O)(Cn4cncn4)c4ccc(F)cc4F)CC3)cc2o1 (stereo unspecified) in the records?
Response given: 0.25

Challenge: Which value of MIC80 has been reported for COc1ccc2c(ccn2CCN2CCN(CC(O)(Cn3cncn3)c3ccc(F)cc3F)CC2)c1 (stereo unspecified) in the records?
Response given: 0.031

Challenge: Which value of MIC80 has been reported for OC(CN1CCN(CCn2ccc3cc(Cl)c(Cl)cc32)CC1)(Cn1cncn1)c1ccc(F)cc1F (stereo unspecified) in the records?
Response given: 0.031

Challenge: Which value of MIC80 has been reported for `O[C@@](CN1CCN(CCn2ccc3cc(Br)ccc32)CC1)(Cn1cncn1)c1ccc(F)cc1F` in the records?
Response given: 0.004

Challenge: Which value of MIC80 has been reported for OC(CN1CCN(CCCCn2ccc3cc(Br)ccc32)CC1)(Cn1cncn1)c1ccc(F)cc1F (stereo unspecified) in the records?
Response given: 0.062

Challenge: Which value of MIC80 has been reported for O=S(=O)(c1ccc(F)cc1)N1CCN(CC(O)(Cn2cncn2)c2ccc(F)cc2F)CC1 (stereo unspecified) in the records?
Response given: 0.125

Challenge: Which value of MIC80 has been reported for OC(CN1CCN(CCn2ccc3cc(Cl)cnc32)CC1)(Cn1cncn1)c1ccc(F)cc1F (stereo unspecified) in the records?
Response given: 0.062

Challenge: Which value of MIC80 has been reported for OC(CN1CCN(CCCn2ccc3ccc(Cl)cc32)CC1)(Cn1cncn1)c1ccc(F)cc1F (stereo unspecified) in the records?
Response given: 0.062

Challenge: Which value of MIC80 has been reported for O=C1C(=O)N(CCN2CCN(CC(O)(Cn3cncn3)c3ccc(F)cc3F)CC2)c2ccc(Br)cc21 (stereo unspecified) in the records?
Response given: 0.062
